# target.under.test: T1, cynomolgus monkey Siglec15-his protein (cynomolgus monkey)
# T1 construct: In house made; also called Cynomolgus Siglec15-his; cynomolgus Siglec15
# T1 chain: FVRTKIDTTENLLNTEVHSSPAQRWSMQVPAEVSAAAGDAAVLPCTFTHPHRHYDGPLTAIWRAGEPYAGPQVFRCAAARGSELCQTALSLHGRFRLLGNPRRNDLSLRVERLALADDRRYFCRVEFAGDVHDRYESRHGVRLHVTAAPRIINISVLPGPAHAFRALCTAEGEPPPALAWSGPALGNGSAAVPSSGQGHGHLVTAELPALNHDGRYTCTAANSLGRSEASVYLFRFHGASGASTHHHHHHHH
# assay.protocol: indirect ELISA on coated cynomolgus Siglec15-his
parameter: pEC50
API: returns pEC50 as number; meaning -log10 of concentration in mol/L.

Fill blank: measured pEC50 of the binder A2A5C7E8 (antibody, V domains shown, Fully human antibody from transgenic mouse hybridoma; also called A2A5C7E8-1) VH: EVQLVQSGAEVKKPGESLRISCKGSGYSFTTYWISWVRQMPGKGLEWMGLIDPSDSYTNYSPSFQGHVTISTDKSISTAYLQWSSLKASDTAMYYCARGGYYGSEEDYWGQGTLVTVSS VL: EIVLTQSPGTLSLSPGERATLSCRASQSVSSSRLAWFQQKSGQAPRLLIFDASSRATGIPDRFSGSGSGTDFTLTISRLEPEDFAVYYCQQYGSSPRTFGQGTKVEFK is ____. 9.87
